Data provenance is the METLIN SMRT retention time set (Domingo-Almenara et al. 2019).

Each item that follows carries a reported RP-LC retention time.
assay: gradient 5% acetonitrile 3 min, to 50% in 2 min, to 85% in 15 min, held 3 min, 100 µL/min; details: column: Zorbax Extend-C18 2.1 x 50 mm; eluents: water / acetonitrile, 0.1% formic acid

| Molecule | RP-LC retention time |
| --- | --- |
| CC(C)NC(=O)c1ccc(OCC2CCCN(C(=O)c3ccc(N(C)C)cc3)C2)cc1 (centres undefined) | 818 s |
| Cc1noc(CNC(=O)CCCN2C(=O)c3ccccc3C2=O)n1 | 633 s |
| CCc1ccc(-n2nc(N3CCCC(C(=O)NCc4cccc(Br)c4)C3)ccc2=O)cc1 (centres undefined) | 991 s |
| O=C(c1cccc(-n2cnnn2)c1)N1CCN(Cc2nc3ccccc3[nH]2)CC1 | 543 s |
| O=C(c1n[nH]c2ccccc12)N1CCC(c2noc(C3CC3)n2)C1 (centres undefined) | 720 s |
| Cc1ccc(CCNC(=O)C2CCCN2S(=O)(=O)c2ccc3c(c2)C(C)(C)C(=O)N3C)cc1 (centres undefined) | 896 s |
| COc1ccc(-c2ncc3c(n2)CCN(S(=O)(=O)c2cccc(C)c2)C3)cc1 | 1070 s |
| O=C(Cn1nc2c(Oc3ccc(Cl)cc3)nccn2c1=O)NC1CCCCC1 | 881 s |
| O=C(Nc1ccc2c(c1)OCO2)C1CCN(C(=O)c2cccc(F)c2)CC1 | 753 s |
| Cc1cc(O)c(C(C)C)cc1NC(=O)Nc1cccc2ccccc12 | 1190 s |
| Cc1nc(C)c(-c2ccc(=O)n(CCNC(=O)Cn3cnc4ccccc43)n2)s1 | 552 s |
| CS(=O)(=O)N1CCN(CCNC(=O)NCc2cccc3ccccc23)CC1 | 570 s |
| O=C(N[C@H](Cc1ccccc1)C(=O)NCc1cscn1)c1ccccc1 | 738 s |
| CCn1cc(S(=O)(=O)NCc2ccc(F)cc2Cl)c2cccnc21 | 855 s |
| Cc1ccc(-c2nc3n(CC(=O)NCC4CCCO4)c4c(c(=O)n3n2)CCC4)cc1 (centres undefined) | 720 s |
| CO[C@H]1C(=O)N(C(C)C)[C@H]1C1CCN(S(=O)(=O)Cc2ccccc2)CC1 | 829 s |
| O=C(NC1CCCC1)c1ccc2ccnc(N3CCN(c4ccccc4)CC3)c2c1 | 776 s |
| Cc1cc2nc(C(=O)NC3CC3)c(=O)n(C)c2cc1C | 714 s |
| Cc1cc(Nc2ccc(F)cc2)nc2nn(Cc3cc(=O)n4ccccc4n3)c(=O)n12 | 836 s |

----------
assay: gradient 5% acetonitrile 3 min, to 50% in 2 min, to 85% in 15 min, held 3 min, 100 µL/min; conditions: column: Zorbax Extend-C18 2.1 x 50 mm; eluents: water / acetonitrile, 0.1% formic acid
Outcome: 1 for RP-LC retention time of at least 700 s; 0 for anything lower.

| Compound | Class label |
| --- | --- |
| O=C(CN1C(=O)C2CCCCN2c2ccc(S(=O)(=O)N3CCCC3)cc21)NCCc1ccco1 (stereo not given) | 1 |
| COc1ccc(CNC(=O)N2CCN(Cc3nc4cc(-c5ccccc5)ccc4o3)CC2)cc1 | 1 |
| CC(=O)N(C)Cc1nc2ccccc2n1CCOc1ccccc1Cl | 0 |
| CCn1ccc(C(=O)NC2CCN(c3nnc4ccc(Cl)cn34)CC2)n1 | 0 |

----------
assay: gradient 5% acetonitrile 3 min, to 50% in 2 min, to 85% in 15 min, held 3 min, 100 µL/min; conditions: column: Zorbax Extend-C18 2.1 x 50 mm; eluents: water / acetonitrile, 0.1% formic acid
Outcome: yes for RP-LC retention time of at least 900 s; no for anything lower.

| Compound | Class label |
| --- | --- |
| Fc1ccc(OCc2nn3c(-c4cccnc4)nnc3s2)cc1 | no |
| Cn1cc(C2=CCN(S(=O)(=O)c3cccc(C(F)(F)F)c3)CC2)c2cccnc21 | yes |
| COc1ccccc1C(=O)N1CCC2(CC1)N=C(c1ccc(Br)cc1)C(=O)N2 | no |
| CCCN1C(=O)COc2ccc(-c3noc(CCc4ccccc4)n3)cc21 | yes |
| COc1cccc(NC(=O)C2CCCN(c3nnc4ccc(Cl)cn34)C2)c1 (stereo not given) | no |
| CSc1ccc(CNC(=O)C2CCN(c3nnc(-c4ccc(C)cc4)o3)CC2)cc1 | yes |
| CCCNC(=O)c1ccc(-c2nc3cc(NS(=O)(=O)c4cnc[nH]4)ccc3n2C)cc1 | no |
| O=c1c2cc(Cl)ccc2oc2cc(O)cc(O)c12 | yes |
| COCCN1C(=O)c2ccccc2C(C(=O)Nc2ccc(OC)cc2OC)C12CCCC2 (stereo not given) | no |
| COc1ccc2c(c1O)-c1cccc3c1[C@@H](C2)N(C)CC3 | no |
| CCCc1nc(-n2cccc2)sc1C(=O)Nc1ccc(OC)cc1F | yes |
| O=C(NCCC1=CCCCC1)C(=O)Nc1cccc([N+](=O)[O-])c1 | yes |
| CCN1CCCC1CNC(=O)Cn1nc(C)n2nc(-c3ccccc3)cc2c1=O (stereo not given) | no |
| O=C(Cn1nc2c(Oc3ccc(Cl)cc3)nccn2c1=O)NCc1ccco1 | no |
| O=C(NCC1CCN(C(=O)Nc2ccc(F)cc2)CC1)c1ccccc1Cl | no |
| CCc1ccccc1N1C(=O)CN(S(C)(=O)=O)CC1(C)C(=O)NCc1ccc(F)cc1 (stereo not given) | no |
| COc1ccc(NC(=O)N2C[C@@H](F)C[C@H]2C(=O)N2CCc3ccccc3C2)cc1 | no |
| Cc1ccccc1N1CCN(CCc2nnc3n2CCCC3)CC1 | no |
| COc1ccc2c(c1)C(C)CC(C)(C)N2C(=O)CSc1ncccn1 (stereo not given) | yes |

----------
Each item that follows carries a reported RP-LC retention time.
assay: gradient 5% acetonitrile 3 min, to 50% in 2 min, to 85% in 15 min, held 3 min, 100 µL/min; conditions: column: Zorbax Extend-C18 2.1 x 50 mm; eluents: water / acetonitrile, 0.1% formic acid

| Structure smiles | RP-LC retention time (s) |
| --- | --- |
| CO/N=C(\C(=O)N[C@@H]1C(=O)N2C(C(=O)OCOC(=O)C(C)(C)C)=C(/C=C\c3scnc3C)CS[C@H]12)c1csc(N)n1 | 792 |
| Cc1cn(C)c(CC(=O)NCCN2CCCCC2)c1C(=O)O | 578 |
| Cc1oc(-c2[nH]ncc2C(=O)N2CCCC2)cc1S(=O)(=O)NCc1ccccc1 | 700 |
| O=C(NC1CCN(C(=O)c2cc(-c3cccs3)[nH]n2)CC1)C1CCCCC1 | 722 |
| Cc1cccc(C)c1-n1ccn(Cc2nc(-c3ccc(C(C)(C)C)cc3)no2)c(=O)c1=O | 1120 |
| Cc1sc(-c2cc(C(F)(F)F)on2)cc1S(=O)(=O)N1CCCCCC1 | 1270 |
| Cc1ccc(-c2ncc(C(=O)Nc3ccc4c(c3)OCCO4)c(-c3ccncc3)n2)cc1 | 880 |
| Cc1ccc(CCC(=O)Nc2c(C)cccc2C(=O)O)o1 | 726 |
| COC(=O)c1ccc(NC(=O)C2CCN(S(=O)(=O)c3c(C)nn(-c4ccccc4)c3C)CC2)cc1 | 955 |

----------
experiment: gradient 5% acetonitrile 3 min, to 50% in 2 min, to 85% in 15 min, held 3 min, 100 µL/min; conditions: column: Zorbax Extend-C18 2.1 x 50 mm; eluents: water / acetonitrile, 0.1% formic acid

| Compound | RP-LC retention time [s] |
| --- | --- |
| O=C(CN1CC=C(c2cnn(-c3ccc(F)cc3)c2)CC1)NC1CCCCC1 | 695 |
| CCOC(=O)c1c(C)[nH]c(C)c1S(=O)(=O)N1CCC(C(=O)Nc2cc(Cl)ccc2C)CC1 | 890 |
| O=C(NC1CCCCC1)c1nnc(-c2ccc(S(=O)(=O)N3CCOCC3)cc2)o1 | 854 |
| O=S(=O)(c1cccc(-c2nnc(-c3ccc(Cl)cc3)o2)c1)N1CCCC1 | 1050 |
| CCc1nnc2ccc(-c3noc(-c4ccc(F)cc4F)n3)cn12 | 879 |
| Cc1ccccc1-c1nc(C2CC(=O)N(c3ccc(Cl)cc3)C2)no1 (centres undefined) | 1090 |
| Cc1ccc(-n2c(N3CCCC(C(=O)NCc4cccs4)C3)nc3ccsc3c2=O)cc1 (centres undefined) | 880 |
| OC[C@@H]1CN(Cc2ccco2)C[C@H]1c1nc(-c2cccnc2)no1 | 557 |
| CCCN(CC1CCOC1)C(=O)Nc1cccc(Cl)c1C (centres undefined) | 835 |
| COc1ccc(NC(=O)NCCc2nc3cccnc3n2C2CCCC2)cc1OC | 647 |
| O=C(c1c(F)cccc1Cl)N1CCN(c2nccn2-c2ccccc2F)CC1 | 574 |
| CC(C)Cn1c(=O)c(N2CCN(C(=O)Cc3ccsc3)CC2)nc2ccncc21 | 653 |
| COc1ccc(-c2csc(Cc3nc(-c4cccc(Cl)c4)no3)n2)cc1OC | 1160 |
| Cc1ccc(-c2cc(C(=O)N3CCN(c4ccccn4)CC3)ccn2)s1 | 639 |
| CCCNC(=O)c1nnc(-c2ccc(S(=O)(=O)N3CCOCC3)cc2)o1 | 724 |
| CCSc1nnc(-c2nn(C)c3c2CN(S(=O)(=O)c2ccccc2Cl)CC3)n1CC | 948 |
| O=C(CCC1CCCC1)N1CCN(c2nnc3ccc(Cl)cn23)CC1 | 832 |
| CC(C)CN(CC1CN(C(=O)COc2ccccc2)CCO1)C(=O)c1ccccc1 (centres undefined) | 851 |
| CCc1nc(-c2cc(S(=O)(=O)N3CCC(C(=O)NCc4ccco4)CC3)c(C)s2)no1 | 932 |
